Values were extracted from patent US10450314B2.

Experiment: Human liver microsome (HLM) metabolic stability assay
Type: in vitro ADME
Details: human liver microsomes, 1 uM compound, 37° C., 60 min; % hepatic blood flow
Listing of recorded HLM (% Qh) by entry.

Recorded HLM (% Qh), per entry:
[[record]]
compound = "CCS(=O)(=O)c1cnc(CNc2nc3c(C)nc(-c4c(C)ncnc4C4CC4)nc3n(C(C)C(F)F)c2=O)nc1 (stereo not drawn) [Example 89]"
test_result = "<24 % Qh"

[[record]]
compound = "CCS(=N)(=O)c1ccc(CNc2nc3c(C)nc(-c4c(C)ncnc4C4CC4)nc3n([C@@H](C)C3CC3)c2=O)nc1 (single isomer, unassigned) [Example 42a]"
test_result = "<24 % Qh"


As a next step, examine the compound that follows.
Form field: reported HLM (% Qh) of COc1ncnc(C2CC2)c1-c1nc(C)c2nc(NCc3ccc(S(C)(=O)=O)cn3)c(=O)n([C@@H](C)C(F)(F)F)c2n1 [Example 17]
39 % Qh
